I'd appreciate it if you could supply IC50 values for the items below.
System: Plasmodium falciparum
method: Antiplasmodial activity against chloroquine-susceptible Plasmodium falciparum FCR3
Type: functional, organism-based
One number for each entry, in µM.

Reference set (5 entries):
Exercise: Query (compound): "C/C(=C\CC/C=C(\C)CC[C@@H](O)[C@]1(C)CC[C@H](C(C)(C)O)O1)CC[C@@H](O)[C@]1(C)CC[C@H](C(C)(C)O)O1" ; field requested: IC50
Key: 40

Exercise: Let us now turn to "C/C(=C\CC/C=C(\C)CC/C=C(\C)CC[C@@H](O)C(C)(C)O)CC/C=C(\C)CC[C@@H](O)C(C)(C)O"
Key: 55

Exercise: Consider next the compound "CC1(C)C(=O)C=C[C@]2(C)[C@H]3CC[C@@]4(C)[C@H](c5ccco5)OC(=O)[C@H]5O[C@]54[C@]3(C)C(=O)C[C@@H]12" in the same way.
Key: 6

Exercise: Quick one: "CC(=O)OC[C@](C)(O)[C@@H](CC/C(C)=C/CC/C(C)=C/CC/C=C(\C)CC/C=C(\C)CC[C@@H](O)C(C)(C)O)OC(C)=O"
Key: 113

Exercise: // same read-out, input: "CC(=O)OC[C@](C)(O)[C@H](O)CC/C(C)=C/CC/C(C)=C/CC/C=C(\C)CC/C=C(\C)CC[C@@H](O)C(C)(C)O"
Key: 55

Attention now turns to another entry.
Exercise: Which IC50 is reported for this compound? "C/C(=C\CC/C=C(\C)CC/C=C(\C)CC[C@@H](O)[C@@](C)(O)CO)CC/C=C(\C)CC[C@@H](O)C(C)(C)O"
Key: 18
